Biological target: Thyrotropin-releasing hormone receptor (Homo sapiens)
Assay: qHTS for Small Molecule Agonists and Allosteric Enhancers of Human TRH Receptor: Primary Screen for Enhancers; also: 0% is about no effect
Settings: TRHR cells, fluo-8 calcium fluorescence, EC20 TRH enhancement; at 2 µM; stronger effect = higher value
The campaign covered roughly 360,000 compounds. About 2,400 (0.67%) were called active. The full list was thinned out, with actives kept by preference.
# key: entry, value: enhancement
OBSERVED_PROPERTY: enhancement (%)

COMPOUND	OBSERVED_PROPERTY	REPORTED
O=C(NCc1cccs1)c1cc(-c2ccccn2)nc2ccc(Br)cc12	enhancement	30.5
Cc1cc(C)n(S(=O)(=O)c2cccc([N+](=O)[O-])c2)n1	enhancement	-7.84
Cc1ccc(C(=O)Nc2cc3c(cc2N2CCCC2)n(C)c(=O)c(=O)n3C)cc1	enhancement	32.4
O=C(NCc1cccs1)c1ccc(Br)o1	enhancement	-3.47
Cc1ccc(-c2cnc(NCc3ccc(C(C)C)cc3)n2C)cc1	enhancement	2.38
CC1=NCCN1S(=O)(=O)c1cccc([N+](=O)[O-])c1	enhancement	18.4
O=C(Nc1ccccc1)c1cccnc1Nc1ccccc1	enhancement	47.9
COc1ccc(CNC(=O)C2=Cc3cccc(OC)c3OC2)cc1OC	enhancement	-3.7
Cc1ccc(NC(=O)c2cn3c4c(ccc(Cl)c4c2=O)OC(C)C3)cc1C (stereo unspecified)	enhancement	6.65
CCn1c(=O)c(=O)n(CC)c2cc(N3CCCCC3)c(NC(=O)c3cccc(F)c3)cc21	enhancement	4.18
O=C(CN1CCN(c2ccccn2)CC1)NCc1cccs1	enhancement	17.1

###

Biological target: Thyrotropin-releasing hormone receptor (Homo sapiens) (UniProt P34981)
Sequence (P34981 whole entry, looked up): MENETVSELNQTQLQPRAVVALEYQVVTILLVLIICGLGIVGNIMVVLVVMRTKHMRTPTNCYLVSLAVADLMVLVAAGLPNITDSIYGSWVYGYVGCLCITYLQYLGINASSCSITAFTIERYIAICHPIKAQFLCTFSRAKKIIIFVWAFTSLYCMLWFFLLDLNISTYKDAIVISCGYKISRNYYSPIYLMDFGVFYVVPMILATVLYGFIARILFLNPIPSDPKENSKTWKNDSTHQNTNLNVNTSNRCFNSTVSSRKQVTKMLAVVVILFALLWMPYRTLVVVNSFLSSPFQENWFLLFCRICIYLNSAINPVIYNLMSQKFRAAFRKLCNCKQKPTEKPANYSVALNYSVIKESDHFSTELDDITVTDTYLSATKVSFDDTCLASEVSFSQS
Test: qHTS for Small Molecule Agonists and Allosteric Enhancers of Human TRH Receptor: Primary Screen for Enhancers; also: 0% is about no effect
Details: TRHR cells, fluo-8 calcium fluorescence, EC20 TRH enhancement; at 2 µM; stronger effect = higher value
Screen size: about 360,000 compounds; about 2,400 (0.67%) were called active. Many of the other results were omitted from the sample, so actives are more common in it than they were.
Recorded enhancement for the following compounds

COMPOUND	enhancement (%)
CCOc1ccccc1CNC(=O)c1ccc(-n2c(C)cc3c2CCC(C)C3)cc1 (centres undefined)	-0.716
CSc1ncc(C(=O)NCc2ccccc2Cl)c(C(F)(F)F)n1	-4.14
C/C(=N\OC(=O)c1ccccc1)c1c(C)nc2cc(C)ccn12	-2.45
C/C(=C\c1ccco1)CN1CCC(N2CCC(C(=O)N3CCOCC3)CC2)CC1	46.7
COc1ccc(CN2CCN(C(=O)CCC(=O)Nc3nnc(C(C)C)s3)CC2)cc1F	-5.21
CCOc1cc(-c2nnc(SCC(=O)NC3CCCCC3)nc2-c2ccc(OC)c(OCC)c2)ccc1OC	-3.44
CCc1nc2c(cnn2-c2ccc(C)cc2)c(=O)n1-c1ccc(C)cc1	-4.12
COc1ccc(N2CCN(C(=O)C3CCCN(C(=O)c4cc5sccc5n4C)C3)CC2)cc1 (centres undefined)	32.5
C/C(=N/OC(=O)c1ccc(Br)cc1)c1ccc(C)cc1	61.7
CCc1nnc(NC(=O)CCC(=O)N2CCN(c3cc(C)ccc3C)CC2)s1	10.6
O=C(C1CCN(C2CCN(Cc3ccc4cc(F)ccc4n3)CC2)CC1)N1CCCC1	-6.35
Cn1c(C(=O)N2CCCC(C(=O)NCc3ccccc3)C2)cc2sccc21 (centres undefined)	4.18
CC(C)c1nnc(NC(=O)CCC(=O)N2CCN(c3cccc(Cl)c3)CC2)s1	44.3
Cn1c(C(=O)N2CCC(C(=O)N3CCN(c4ccccc4)CC3)CC2)cc2sccc21	0.218
